Test system: Human Embryo Kidney (HEK) 293 cells
Test: Hypothermia/rewarming injury of HEK cells, trypan blue viability count
Type: cell-based
Details: Homo sapiens, HEK293, 24 h, 10 μM; 24 h at 4° C., 24 h rewarming; read-out: % cells that survived
observation-type: viability at 10 µM (%)
Field: numeric (%). Do not append units.

Cc1c(C)c2c(c(C)c1O)CCC(C)(C(=O)Nc1ccc(F)cc1)O2 (stereo not drawn) [SUL - 106]
68.8

Query Cc1c(C)c2c(c(C)c1O)CCC(C)(C(=O)NO)O2 (stereo not drawn) [SUL - 90] yields viability at 10 µM of 90.2

Query Cc1c(C)c2c(c(C)c1O)CCC(C)(C(=O)N1CCN(CCOCCO)CC1)O2 (stereo not drawn) [SUL - 122] yields viability at 10 µM of 85.2

Query Cc1c2c(c(C(C)C)c(O)c1C(C)C)CCC(C)(C(=O)N1CCN(CC(=O)O)CC1)O2 (stereo not drawn) [SUL - 139] yields viability at 10 µM of 90

Query Cc1c(C)c2c(c(C)c1O)CCC(C)(C(N)=O)O2 (stereo not drawn) [SUL - 89] yields viability at 10 µM of 91.6

Query Cc1c(C)c2c(c(C)c1O)CC[C@](C)(C(=O)O)O2 [SUL - 85] yields viability at 10 µM of 1.43

====

Tested on: Human Embryo Kidney (HEK) 293 cells
Test: Hypothermia/rewarming injury of HEK cells, trypan blue viability count
Assay type: cell-based
Settings: mean over the tested concentrations
observation-type: % cells that survived, Mean
Form entry: enter the amount, then its unit.

Take a look at these entries with their results.
Cc1c(C)c2c(c(C)c1O)CCC(C)(CN1CCC[C@H]1CO)O2 (stereo partly drawn) [SUL - 135]
77%
Cc1c(C)c2c(c(C)c1O)CCC(C)(C(=O)N1CCNCC1)O2 (stereo not drawn)
75%

Form: item Cc1c2c(c(C(C)C)c(O)c1C(C)C)CCC(C)(C(=O)O)O2 (stereo not drawn) ; test system Human Embryo Kidney (HEK) 293 cells; % cells that survived, Mean: 55%

Form: item Cc1c(C)c2c(c(C)c1O)CCC(C)(C(=O)N1CCN(CCOCCO)CC1)O2 (stereo not drawn) ; test system Human Embryo Kidney (HEK) 293 cells; % cells that survived, Mean: 57%

====

System: Human Embryo Kidney (HEK) 293 cells
Experiment: Hypothermia/rewarming injury of HEK cells, trypan blue viability count
Format: cell-based
Details: Homo sapiens, HEK293, 24 h, 10 nM; 24 h at 4° C., 24 h rewarming; read-out: % cells that survived
Threshold 70%. viability at 0.01 µM below it: met. viability at 0.01 µM at it or above: not met.

Cc1c2c(c(C(C)C)c(O)c1C(C)C)CCC(C)(C(=O)NO)O2 (stereo not shown) [SUL - 131]
met

Say whether its viability at 0.01 µM is strictly beneath 70%. Entry: Cc1c(C)c2c(c(C)c1O)CC[C@@](C)(C(=O)NO)O2 [SUL - 126] met

Say whether its viability at 0.01 µM is strictly beneath 70%. Entry: Cc1c(C)c2c(c(C)c1O)CCC(C)(C(=O)N1CCC[C@H]1CO)O2 (stereo partly shown) [SUL - 112] not met

Say whether its viability at 0.01 µM is strictly beneath 70%. Entry: Cc1c(C)c2c(c(C)c1O)CCC(C)(C(=O)Nc1cccc([N+](=O)[O-])c1)O2 (stereo not shown) [SUL - 104] not met

Say whether its viability at 0.01 µM is strictly beneath 70%. Entry: Cc1c(C)c2c(c(C)c1O)CCC(C)(C(=O)NCCCN1CCCCC1)O2 (stereo not shown) [SUL - 102] not met

====

Tested on: Human Embryo Kidney (HEK) 293 cells
Test: Hypothermia/rewarming injury of HEK cells, trypan blue viability count
Type: cell-based
Conditions: Homo sapiens, HEK293, 24 h, 10 nM; 24 h at 4° C., 24 h rewarming; read-out: % cells that survived
Threshold 8%. viability at 0.01 µM below it: true. viability at 0.01 µM at it or above: false.

Consider the worked cases shown below.
Cc1c(C)c2c(c(C)c1O)CCC(C)(CN[C@H](CO)c1ccccc1)O2 (stereo partly drawn)
true
Cc1c(C)c2c(c(C)c1O)CCC(C)(C(=O)N[C@H](C)CO)O2 (stereo partly drawn)
false
COC(=O)C1(C)CCc2c(c(C)c(C(C)C)c(O)c2C(C)C)O1 (stereo not drawn)
true
Cc1c(C)c2c(c(C)c1O)CCC(C)(C(=O)N1CCNCC1)O2 (stereo not drawn)
false
Cc1c(C)c2c(c(C)c1O)CC[C@@](C)(C(=O)N1CCN(CC(=O)O)CC1)O2
false

Say whether its viability at 0.01 µM is strictly beneath 8%. Entry: CCCCN1CCN(C(=O)C2(C)CCc3c(C)c(O)c(C)c(C)c3O2)CC1 (stereo not drawn) true

Say whether its viability at 0.01 µM is strictly beneath 8%. Entry: Cc1c(C)c2c(c(C)c1O)CCC(C)(C(=O)N1CCN(CCO)CC1)O2 (stereo not drawn) false

Say whether its viability at 0.01 µM is strictly beneath 8%. Entry: Cc1c2c(c(C(C)C)c(O)c1C(C)C)CCC(C)(C(=O)N1CCNCC1)O2 (stereo not drawn) false

====

Test system: Human Embryo Kidney (HEK) 293 cells
Assay: Hypothermia/rewarming injury of HEK cells, trypan blue viability count
Type: cell-based
Conditions: Homo sapiens, HEK293, 24 h, 10 μM; 24 h at 4° C., 24 h rewarming; read-out: % cells that survived
Threshold 90%. viability at 10 µM below it: TRUE. viability at 10 µM at it or above: FALSE.

Cc1c(C)c2c(c(C)c1O)CCC(C)(C(=O)NCc1ccc(F)cc1)O2 (stereo not shown)
FALSE
Cc1c(C)c2c(c(C)c1O)CCC(C)(C(=O)N[C@@H](C(N)=O)c1ccccc1)O2 (stereo partly shown)
FALSE
Cc1c(C)c2c(c(C)c1O)CCC(C)(C(=O)N1CCN(CCO)CC1)O2 (stereo not shown)
FALSE

Say whether its viability at 10 µM is strictly beneath 90%. Entry: COC(=O)c1ccc(NC(=O)C2(C)CCc3c(C)c(O)c(C)c(C)c3O2)cc1 (stereo not shown) FALSE

Say whether its viability at 10 µM is strictly beneath 90%. Entry: Cc1c(C)c2c(c(C)c1O)CCC(C)(CN1CCC[C@H]1CO)O2 (stereo partly shown) FALSE

Say whether its viability at 10 µM is strictly beneath 90%. Entry: "Cc1c(C)c2c(c(C)c1O)CC[C@@](C)(C(=O)O)O2" TRUE

Say whether its viability at 10 µM is strictly beneath 90%. Entry: "Cc1c(C)c2c(c(C)c1O)CC[C@](C)(C(=O)N1CCN(CC(=O)O)CC1)O2" FALSE

Say whether its viability at 10 µM is strictly beneath 90%. Entry: Cc1c2c(c(C(C)C)c(O)c1C(C)C)CCC(C)(C(=O)O)O2 (stereo not shown) TRUE

====

Measured % cells that survived accompanies every entry in the list below.
Test system: Human Embryo Kidney (HEK) 293 cells
Assay: Hypothermia/rewarming injury of HEK cells, trypan blue viability count
Format: cell-based
Conditions: 100 nM; 24 h at 4° C., 24 h rewarming
Field: numeric (%). Do not append units.

Take a look at these entries with their results.
Cc1c(C)c2c(c(C)c1O)CCC(C)(CN1CCC[C@H]1CO)O2 (some centres unmarked) [SUL - 134]
86.34
Cc1c(C)c2c(c(C)c1O)CCC(C)(C(=O)N1CCC[C@H]1C(=O)O)O2 (single isomer, unassigned)
28.68
Cc1c(C)c2c(c(C)c1O)CCC(C)(C(=O)N1CCN(CCO)CC1)O2 (centres unmarked) [SUL - 138]
91.74
Cc1c(C)c2c(c(C)c1O)CCC(C)(CN1CCC[C@H]1CO)O2 (some centres unmarked) [SUL - 135]
83.90

Form: item Cc1c(C)c2c(c(C)c1O)CCC(C)(C(=O)N1CCN(CCO)CC1)O2 (centres unmarked) [SUL - 132] ; test system Human Embryo Kidney (HEK) 293 cells; % cells that survived: 91.41

====

Measured % cells that survived, Mean accompanies every entry in the list below.
Test system: Human Embryo Kidney (HEK) 293 cells
Assay: Hypothermia/rewarming injury of HEK cells, trypan blue viability count
Assay type: cell-based
Conditions: mean over the tested concentrations
Field: numeric (%). Do not append units.

Take a look at these entries with their results.
Cc1c(C)c2c(c(C)c1O)CC[C@](C)(C(=O)O)O2
33
Cc1c(C)c2c(c(C)c1O)CCC(C)(C(=O)NCCCN1CCCCC1)O2 (stereo not drawn)
85
Cc1c(C)c2c(c(C)c1O)CCC(C)(C(=O)NCc1ccc(F)cc1)O2 (stereo not drawn)
58

Now turn to the next compound.
Query "Cc1c(C)c2c(c(C)c1O)CCC(C)(C)O2" yields % cells that survived, Mean of 41
